From: patent US11584744B2

- System Name: MetRS (T. brucei) (Trypanosoma brucei brucei, UniProt Q38C91)
- Sequence (Q38C91 1-773): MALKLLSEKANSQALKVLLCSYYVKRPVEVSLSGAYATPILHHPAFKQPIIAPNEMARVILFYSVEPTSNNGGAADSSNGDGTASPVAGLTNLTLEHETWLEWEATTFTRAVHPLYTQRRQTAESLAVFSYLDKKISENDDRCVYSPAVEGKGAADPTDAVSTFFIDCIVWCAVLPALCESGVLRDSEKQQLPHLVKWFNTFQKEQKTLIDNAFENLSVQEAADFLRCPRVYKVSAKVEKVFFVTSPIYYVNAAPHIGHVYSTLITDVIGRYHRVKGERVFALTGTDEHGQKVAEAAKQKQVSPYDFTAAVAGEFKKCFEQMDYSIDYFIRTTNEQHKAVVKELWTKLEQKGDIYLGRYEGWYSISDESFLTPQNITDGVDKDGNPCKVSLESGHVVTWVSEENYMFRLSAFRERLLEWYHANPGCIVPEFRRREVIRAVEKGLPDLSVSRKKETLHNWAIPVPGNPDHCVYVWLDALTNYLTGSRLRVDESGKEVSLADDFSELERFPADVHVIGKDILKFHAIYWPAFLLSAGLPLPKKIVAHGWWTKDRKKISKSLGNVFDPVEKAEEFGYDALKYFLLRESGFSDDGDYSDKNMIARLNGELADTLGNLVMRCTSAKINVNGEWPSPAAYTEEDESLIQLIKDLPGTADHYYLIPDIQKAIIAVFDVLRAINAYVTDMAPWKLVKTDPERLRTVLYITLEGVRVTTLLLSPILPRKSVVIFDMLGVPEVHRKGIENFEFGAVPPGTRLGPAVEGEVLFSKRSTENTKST
For each of the molecules below, state its IC50.

Some entries whose results are on file:
[[record]]
compound_structure = "CCn1c(Cc2ccc(Cl)cc2Cl)cn(Cc2nc3ccc(Cl)nc3[nH]2)c1=O"
measured_result = "< 40 nM"

[[record]]
compound_structure = "CCn1c(Cc2ccc(Cl)cc2Cl)cn(Cc2nc3nc(F)ccc3[nH]2)c1=O"
measured_result = "< 40 nM"

[[record]]
compound_structure = "O=c1n(Cc2nc3ccc(Cl)nc3[nH]2)cc(Cc2ccc(Cl)cc2Cl)n1CCO"
measured_result = "< 40 nM"

[[record]]
compound_structure = "COc1ccc(-c2nn(C)c3c2CN(Cc2nc4nc(Cl)ccc4[nH]2)CC3)c(Cl)c1"
measured_result = "117 nM"

[[record]]
compound_structure = "CCn1c(Cc2ccc(Cl)cc2Cl)cn(Cc2nc3ccc(Cl)c(C#N)c3[nH]2)c1=O"
measured_result = "< 40 nM"

[[record]]
compound_structure = "O=C(c1cn(Cc2nc3ccc(Cl)nc3[nH]2)c(=O)[nH]1)c1ccc(Cl)cc1Cl"
measured_result = "< 40 nM"


Below is a list of molecules. For each, state its recorded IC50.
1. Cc1ccc(-c2cccc3nc(Cc4nc5nc(Cl)ccc5[nH]4)cn23)c(Cl)c1
2. Fc1ccc2[nH]c(Cc3cn4c(-c5ccc(C(F)(F)F)cc5Cl)cccc4n3)nc2n1

Data returned:
1. < 40 nM
2. 63 nM
